Target: T1, serum resistance-associated protein (SRA) from Trypanosoma brucei rhodesiense, recombinant SRA (SEQ ID NO: … (Trypanosoma brucei rhodesiense, UniProt O96637 31-274))
T1 construct: also called SRA protein
T1 sequence: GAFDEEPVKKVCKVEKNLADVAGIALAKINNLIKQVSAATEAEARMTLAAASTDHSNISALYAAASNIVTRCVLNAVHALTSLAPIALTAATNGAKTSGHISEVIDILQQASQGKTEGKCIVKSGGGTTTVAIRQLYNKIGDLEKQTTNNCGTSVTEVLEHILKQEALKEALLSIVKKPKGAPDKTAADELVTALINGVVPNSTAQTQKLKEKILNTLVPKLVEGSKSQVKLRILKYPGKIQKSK
Assay: SPR, 25C, t1/2 pH 7.4 over pH 4.5
Exercise: for every item that follows, state its recorded t ½ ratio pH 7.4/pH 4.5.

- BINDER: "H1H10026P (antibody, V domains shown, Fully human antibody with human IgG1 Fc (prefix H1H)) VH: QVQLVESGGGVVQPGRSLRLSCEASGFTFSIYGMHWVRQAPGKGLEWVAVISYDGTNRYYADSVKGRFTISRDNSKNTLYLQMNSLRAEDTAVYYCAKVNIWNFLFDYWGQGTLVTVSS VL: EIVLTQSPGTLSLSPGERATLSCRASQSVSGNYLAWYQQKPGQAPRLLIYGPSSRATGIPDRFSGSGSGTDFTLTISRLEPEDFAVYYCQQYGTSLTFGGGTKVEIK"
  QUANTITY_KIND: "t ½ ratio pH 7.4/pH 4.5"
  VALUE: "≥ 2"
- BINDER: "H1H10059P (antibody, V domains shown, Fully human antibody with human IgG1 Fc (prefix H1H)) VH: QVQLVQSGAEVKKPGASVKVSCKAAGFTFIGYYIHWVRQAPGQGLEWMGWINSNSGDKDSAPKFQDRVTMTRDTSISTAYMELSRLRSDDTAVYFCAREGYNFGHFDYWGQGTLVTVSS VL: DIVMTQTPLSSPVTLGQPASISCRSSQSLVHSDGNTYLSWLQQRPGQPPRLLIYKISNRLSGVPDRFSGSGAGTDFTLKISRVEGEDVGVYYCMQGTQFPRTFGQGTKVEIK"
  QUANTITY_KIND: "t ½ ratio pH 7.4/pH 4.5"
  VALUE: "≥ 6"
- BINDER: "H1H10056P (antibody, V domains shown, Fully human antibody with human IgG1 Fc (prefix H1H)) VH: QVQLVESGGGVVQPGRSLRLSCSASGFTFSLYGMHWIRQAPGKGLEWVAVISYDGSNTYYGDSVKGRFTISRDNSKNTLYLQMNSLRTEDTAIYYCAKVYNWNYLFDYWGQGTLVTVSS VL: EIVLTQSPDTLSLSPGERATLSCRASQNVNNNFLAWYQQKPGQAPRLLIYGASSRATDIPERFSGSGSGTDFTLTISRLEPEDFAVYYCLHYVNSRTFGQGTKVEIK"
  QUANTITY_KIND: "t ½ ratio pH 7.4/pH 4.5"
  VALUE: "≥ 31"
- BINDER: "H1H10067P (antibody, V domains shown, Fully human antibody with human IgG1 Fc (prefix H1H)) VH: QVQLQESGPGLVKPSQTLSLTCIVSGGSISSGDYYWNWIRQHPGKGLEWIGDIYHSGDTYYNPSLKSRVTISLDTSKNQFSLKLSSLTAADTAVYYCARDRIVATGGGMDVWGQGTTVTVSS VL: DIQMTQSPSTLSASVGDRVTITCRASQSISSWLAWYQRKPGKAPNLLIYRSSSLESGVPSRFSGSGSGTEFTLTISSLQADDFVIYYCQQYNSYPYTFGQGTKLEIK"
  QUANTITY_KIND: "t ½ ratio pH 7.4/pH 4.5"
  VALUE: "≥ 4"

Please examine the following record next.
Input line: Could you share which t ½ ratio pH 7.4/pH 4.5 value was measured for H2aM10285N (antibody, V domains shown, Chimeric antibody, human variable domains and mouse constant domains (mouse Fc, prefix H2aM); also called H2M10285N) VH: QVQLVQSGAEVKKPGSSVKVSCKASGGTFTNFAISWVRQAPGLGLEWMGGIIPFVGTATYEQKFQGRVSITADESTRTAYMELSSLRYDDTAVYYCARWFSGSGGDFDYWGQGTLVTVSS VL: AIQMTQSPSSLSASVGDRVTITCRASQGIGNDLGWYQQRRGTAPKLLIYAASSLQSGVPSRFSGSGSGTDFTLTISSLQPEDFATYYCLQDFTFPRTFGQGTKVEIK ?
Output line: 124
